Target: mouse NMUR2 (Mus musculus)
Construct: expressed in transfected cells; host or cells: FLP-In CHO cells and HEK-293 FLP-In cells (pcDNA5)
Sequence (Q8BZ39 whole entry): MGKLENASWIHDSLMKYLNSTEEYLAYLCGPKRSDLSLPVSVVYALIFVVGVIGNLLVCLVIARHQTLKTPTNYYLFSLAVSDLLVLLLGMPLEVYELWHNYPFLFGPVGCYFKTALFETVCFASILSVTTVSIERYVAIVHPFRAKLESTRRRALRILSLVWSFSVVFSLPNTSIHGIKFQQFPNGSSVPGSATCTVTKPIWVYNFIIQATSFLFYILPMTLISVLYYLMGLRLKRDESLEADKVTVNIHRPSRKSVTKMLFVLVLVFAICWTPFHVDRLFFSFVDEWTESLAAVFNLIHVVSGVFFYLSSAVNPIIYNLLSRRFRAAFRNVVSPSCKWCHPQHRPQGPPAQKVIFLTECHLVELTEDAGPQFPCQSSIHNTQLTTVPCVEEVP
Experiment: FLIPR calcium mobilization assay, mouse NMUR2 cell line
Type: cell-based
Details: mouse NMUR2, FLIPR
Groups on a side chain read outwards from the residue.
assayReadout: EC50 (nM)
Give the value, in units of nM, as a plain number.

The examples below pair each entry with its known result.
>  <substance>
Ac-C4ILQRGSGTAAVDFTKKDHTATWGRPFFLFRPRN-CONH2 (Ac-C([maleimide-PEG 40 kDa])ILQRGSGTAAVDFTKKDHTATWGRPFFLFRPRN-NH2) [NMS4, C4 = Cys(PEG)40 kDa, cysteine PEGylated via the side-chain thiol with a linear PEG]

>  <resultValue>
19.4

$$$$
>  <substance>
H-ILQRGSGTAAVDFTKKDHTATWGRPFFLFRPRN-NH2 [NMS, reference compound]

>  <resultValue>
7.8

$$$$

Alright, here's another substance for you.
Ask | Look at this substance and give its reported EC50. Ac-C2ILQRGSGTAAVDFTKKDHTATWGRPFFLFRPRN-CONH2 (Ac-C([maleimide-(PEG)2 40 kDa])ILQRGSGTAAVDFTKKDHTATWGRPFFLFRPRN-NH2) [NMS1, C2 = Cys(PEG)240 kDa, cysteine PEGylated via the side-chain thiol with a branched PEG]
Reply | 29.1

* * *

Target: human NMUR1 (Homo sapiens)
Construct: expressed in transfected cells; host or cells: FLP-In CHO cells and HEK-293 FLP-In cells (pcDNA5)
Sequence (Q9HB89 whole entry): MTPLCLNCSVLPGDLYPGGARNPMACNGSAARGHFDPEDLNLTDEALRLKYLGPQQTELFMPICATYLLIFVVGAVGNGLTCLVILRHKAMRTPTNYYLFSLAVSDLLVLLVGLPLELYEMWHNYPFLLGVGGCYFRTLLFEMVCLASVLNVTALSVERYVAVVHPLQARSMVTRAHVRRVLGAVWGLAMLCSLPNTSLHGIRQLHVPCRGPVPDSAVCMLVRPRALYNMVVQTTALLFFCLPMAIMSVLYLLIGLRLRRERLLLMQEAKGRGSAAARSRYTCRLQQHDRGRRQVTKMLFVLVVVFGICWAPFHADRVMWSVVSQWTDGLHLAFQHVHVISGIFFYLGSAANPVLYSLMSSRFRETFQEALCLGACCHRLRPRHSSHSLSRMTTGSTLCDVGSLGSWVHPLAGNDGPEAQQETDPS
Assay: FLIPR calcium mobilization assay, human NMUR1-expressing cell line
Format: cell-based
Conditions: human NMUR1, FLIPR
Groups on a side chain read outwards from the residue.
Below, each of the substances is paired with its reported pEC50 value.
The value called pEC50 is obtained by taking minus log10 of the concentration in mol/L.

The examples below pair each entry with its known result.
>  <substance>
H-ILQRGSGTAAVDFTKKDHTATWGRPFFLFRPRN-NH2 [NMS, reference compound]

>  <pEC50>
8.17

$$$$
>  <substance>
Ac-C4ILQRGSGTAAVDFTKKDHTATWGRPFFLFRPRN-CONH2 (Ac-C([maleimide-PEG 40 kDa])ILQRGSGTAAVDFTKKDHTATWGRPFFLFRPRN-NH2) [NMS4, C4 = Cys(PEG)40 kDa, cysteine PEGylated via the side-chain thiol with a linear PEG]

>  <pEC50>
7.13

$$$$

Alright, here's another substance for you.
Ask | Look at this substance and give its reported pEC50. Ac-C2ILQRGSGTAAVDFTKKDHTATWGRPFFLFRPRN-CONH2 (Ac-C([maleimide-(PEG)2 40 kDa])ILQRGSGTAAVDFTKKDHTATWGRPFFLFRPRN-NH2) [NMS1, C2 = Cys(PEG)240 kDa, cysteine PEGylated via the side-chain thiol with a branched PEG]
Reply | 6.85

* * *

Test system: dog NMUR1-ATG
Assay: FLIPR calcium mobilization assay, dog NMUR1-ATG cell line
Format: cell-based
Conditions: FLIPR
Groups on a side chain read outwards from the residue.
Below, each of the substances is paired with its reported pEC50 value.
The value called pEC50 is obtained by taking minus log10 of the concentration in mol/L.

>  <substance>
H-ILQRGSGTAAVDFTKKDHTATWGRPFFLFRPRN-NH2 [NMS, reference compound]

>  <resultValue>
8.36

$$$$
>  <substance>
Ac-C2ILQRGSGTAAVDFTKKDHTATWGRPFFLFRPRN-CONH2 (Ac-C([maleimide-(PEG)2 40 kDa])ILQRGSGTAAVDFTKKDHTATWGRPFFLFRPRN-NH2) [NMS1, C2 = Cys(PEG)240 kDa, cysteine PEGylated via the side-chain thiol with a branched PEG]

>  <resultValue>
7.73

$$$$

Alright, here's another substance for you.
Ask | # value lookup — system dog NMUR1-ATG, readout pEC50, item Ac-C4ILQRGSGTAAVDFTKKDHTATWGRPFFLFRPRN-CONH2 (Ac-C([maleimide-PEG 40 kDa])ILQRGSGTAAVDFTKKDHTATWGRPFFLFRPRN-NH2) [NMS4, C4 = Cys(PEG)40 kDa, cysteine PEGylated via the side-chain thiol with a linear PEG]
Reply | 7.88
